Hello, the source for this data is PubChem BioAssay AID1963315, in case you need it.

Target: Tyrosine-protein kinase ABL1 (Homo sapiens) (UniProt P00519)
Sequence (P00519 whole entry, looked up): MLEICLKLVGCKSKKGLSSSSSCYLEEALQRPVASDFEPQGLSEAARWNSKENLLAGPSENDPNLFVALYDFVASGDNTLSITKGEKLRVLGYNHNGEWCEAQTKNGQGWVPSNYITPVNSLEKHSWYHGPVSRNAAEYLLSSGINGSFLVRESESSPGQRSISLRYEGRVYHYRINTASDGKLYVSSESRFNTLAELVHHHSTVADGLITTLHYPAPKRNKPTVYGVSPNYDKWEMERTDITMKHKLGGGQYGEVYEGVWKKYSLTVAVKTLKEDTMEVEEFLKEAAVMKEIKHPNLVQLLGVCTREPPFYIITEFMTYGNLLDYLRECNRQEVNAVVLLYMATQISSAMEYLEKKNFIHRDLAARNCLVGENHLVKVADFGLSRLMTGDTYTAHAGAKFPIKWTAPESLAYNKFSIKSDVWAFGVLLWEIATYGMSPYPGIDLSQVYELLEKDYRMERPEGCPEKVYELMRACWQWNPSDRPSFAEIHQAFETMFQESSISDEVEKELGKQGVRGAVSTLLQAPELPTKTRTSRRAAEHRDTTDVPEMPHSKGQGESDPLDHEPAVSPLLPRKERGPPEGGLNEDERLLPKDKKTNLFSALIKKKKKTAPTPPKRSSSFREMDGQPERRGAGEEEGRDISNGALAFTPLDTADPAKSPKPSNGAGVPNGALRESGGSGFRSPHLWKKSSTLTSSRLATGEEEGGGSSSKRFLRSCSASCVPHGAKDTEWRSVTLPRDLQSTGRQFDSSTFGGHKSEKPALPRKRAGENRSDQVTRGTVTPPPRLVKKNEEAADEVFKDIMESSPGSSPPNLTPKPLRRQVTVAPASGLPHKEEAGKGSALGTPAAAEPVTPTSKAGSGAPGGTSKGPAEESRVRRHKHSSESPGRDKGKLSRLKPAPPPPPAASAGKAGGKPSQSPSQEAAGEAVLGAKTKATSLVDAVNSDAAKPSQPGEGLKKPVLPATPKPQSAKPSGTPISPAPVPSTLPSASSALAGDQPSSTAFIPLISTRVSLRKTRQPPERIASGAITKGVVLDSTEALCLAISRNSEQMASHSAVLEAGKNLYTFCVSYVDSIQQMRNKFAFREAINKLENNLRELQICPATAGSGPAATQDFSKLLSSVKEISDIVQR
Assay: ABL1 kinase (ABL1-N-HiBiT) SDR gain of signal screen
Conditions: Purified ABL1-N-HiBiT enzyme, Nano-Glo HiBiT luminescence, 30 min compound incubation; series mostly up to 32.9 µM
Inconclusive results are not listed. The source made the active and inactive calls. Calls come from the whole dose curve.
In this exercise, the only acceptable responses are YES = active, NO = inactive

Qu. Dear colleague, could you share the recorded outcome for COc1cc(NC(=O)c2cccc(-n3cc(NC(=O)Nc4cccc(C)c4)cn3)c2)cc(OC)c1OC when you have a moment?
Ans. NO

Qu. I would be grateful if you could indicate the recorded call for Cc1ccc(C(=O)Nc2ccc(CN3CCN(C)CC3)c(C(F)(F)F)c2)cc1C#Cc1cnc2[nH]ncc2c1 .
Ans. YES

Qu. What did the test return for COc1ccc(-n2c(C)c([N+](=O)[O-])c3ccc(O)cc32)cc1 ?
Ans. NO

Qu. // return assay outcome for Cn1cc(-c2cc3c(N4CCN(c5ncc([C@@](C)(N)c6ccc(F)cc6)cn5)CC4)ncnn3c2)cn1
Ans. YES

Qu. Status in this test for COc1cc(N2CCOCC2)ccc1Nc1ncc(Cl)c(Nc2ccccc2NS(C)(=O)=O)n1 ?
Ans. YES

Qu. Record lookup: outcome of this test for O=S(=O)(/N=C/c1c(O)ccc2ccccc12)c1cccs1 ?
Ans. NO

Qu. What is the recorded call for this molecule in the test? COc1cc(N2CCC(O)CC2)ccc1Nc1nc(Nc2ccccc2S(=O)(=O)C(C)C)c2[nH]cnc2n1
Ans. YES

Qu. What did the test return for Cc1cc(F)ccc1-c1nc(NCCN=C(N)NC#N)nc2c1ccc(=O)n2-c1c(F)cccc1F ?
Ans. NO

Qu. Hi team, can someone confirm the assay call for c1cc(-c2cc(C3CCNCC3)[nH]n2)ccn1 ?
Ans. NO
